- target system: human GR (Homo sapiens, UniProt P04150)
- assay protocol: Transrepression Assay (GITAR), TNFα-β-lactamase reporter in U937 cells
- Format: cell-based
- Parameters: U937 cells contain an endogenous glucocorticoid receptor (GR); endogenous in cells; host or cells: U937 cells stably transfected with the TNF-alpha promoter/beta-lactamase reporter
- test context: GITAR Emax minus GRAMMER Emax
- Source text: This assay assesses the ability of test compounds to control transcription from the TNFα-β-lactamase reporter gene in U937 cells, a human myelomonocytic leukemia cell line that naturally expresses the human GR. The assay measures compound dependent-repression of the TNFa promoter linked to a reporter gene. The human U937 cells that had been stablely transfected with the TNF-α promoter driving β-lactamase are used for this assay. U937 cells contain an endogenous glucocorticoid receptor (GR). […]
Class True: GITAR > GRAMM % SEP at least 20%. Class False: GITAR > GRAMM % SEP below 20%.

>  <compound>
C[C@]12Cc3cnn(-c4ccc(F)cc4)c3C=C1CC[C@@H]2CN(CCO)S(=O)(=O)Cc1ccccc1

>  <class label>
False

$$$$
>  <compound>
Cn1nc(C(F)(F)F)cc1-c1ccc(S(=O)(=O)N(CCO)C[C@H]2CCC3=Cc4c(cnn4-c4ccc(F)cc4)C[C@@]32C)s1

>  <class label>
True

$$$$
>  <compound>
C[C@]12Cc3cnn(-c4ccc(F)cc4)c3C=C1CC[C@@H]2CN(CCO)S(=O)(=O)Cc1cccc(C(F)(F)F)c1

>  <class label>
False

$$$$
>  <compound>
C[C@]12Cc3cnn(-c4ccc(F)cc4)c3C=C1CC[C@@H]2CN(CCc1ccccc1F)S(=O)(=O)CC(F)(F)F

>  <class label>
False

$$$$
>  <compound>
Cc1oncc1S(=O)(=O)N(CCO)C[C@H]1CCC2=Cc3c(cnn3-c3ccc(F)cc3)C[C@@]21C

>  <class label>
True

$$$$
>  <compound>
C[C@]12Cc3cnn(-c4ccc(F)cc4)c3C=C1CC[C@@H]2CN(CC(O)C(F)(F)F)S(=O)(=O)Cc1ccccc1C(=O)O (stereo partly shown)

>  <class label>
True

$$$$
>  <compound>
COc1ccccc1CCN(C[C@H]1CCC2=Cc3c(cnn3-c3ccc(F)cc3)C[C@@]21C)S(=O)(=O)Cc1cccnc1

>  <class label>
True

$$$$

* * *

- target system: glucocorticoid receptor (Homo sapiens, UniProt P04150)
- Construct: endogenous in cells
- Sequence (P04150 1-777): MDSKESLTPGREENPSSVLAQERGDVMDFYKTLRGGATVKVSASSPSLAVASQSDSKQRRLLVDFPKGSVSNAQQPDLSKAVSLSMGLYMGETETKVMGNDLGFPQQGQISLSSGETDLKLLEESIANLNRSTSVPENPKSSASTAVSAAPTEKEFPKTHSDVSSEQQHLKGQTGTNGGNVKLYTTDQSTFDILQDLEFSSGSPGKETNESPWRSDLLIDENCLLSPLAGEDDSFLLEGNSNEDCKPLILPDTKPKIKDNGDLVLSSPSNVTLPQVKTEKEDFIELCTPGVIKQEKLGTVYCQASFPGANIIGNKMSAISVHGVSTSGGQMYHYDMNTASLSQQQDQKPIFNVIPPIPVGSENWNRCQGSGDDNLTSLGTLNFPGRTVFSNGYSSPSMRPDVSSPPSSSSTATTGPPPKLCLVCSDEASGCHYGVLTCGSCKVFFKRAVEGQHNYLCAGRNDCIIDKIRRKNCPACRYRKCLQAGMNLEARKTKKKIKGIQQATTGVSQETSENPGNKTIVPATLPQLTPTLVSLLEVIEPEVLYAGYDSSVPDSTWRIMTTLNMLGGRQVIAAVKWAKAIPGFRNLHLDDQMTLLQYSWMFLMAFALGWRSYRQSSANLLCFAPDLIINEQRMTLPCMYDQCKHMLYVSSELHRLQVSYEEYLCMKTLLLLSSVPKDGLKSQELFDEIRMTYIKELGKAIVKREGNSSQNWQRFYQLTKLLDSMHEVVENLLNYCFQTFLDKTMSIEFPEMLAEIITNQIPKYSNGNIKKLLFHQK
- assay protocol: Ligand binding assay (GR BIND)
pKi: −log10 of the molar value.

>  <smiles notation>
COC(=O)c1ccccc1S(=O)(=O)N(CC1CC1)C[C@H]1CCC2=Cc3c(cnn3-c3ccc(F)cc3)C[C@@]21C

>  <pKi>
9.10

$$$$
>  <smiles notation>
C[C@]12Cc3cnn(-c4ccc(F)cc4)c3C=C1CC[C@@H]2CN(CC1(O)CC1)S(=O)(=O)c1ccccc1F

>  <pKi>
8.74

$$$$
>  <smiles notation>
C[C@]12Cc3cnn(-c4ccc(F)cc4)c3C=C1CC[C@@H]2CN(CCCc1ccccc1)S(=O)(=O)c1ccccc1F

>  <pKi>
9.22

$$$$
>  <smiles notation>
C[C@]12Cc3cnn(-c4ccc(F)cc4)c3C=C1CC[C@@H]2CN(CC#N)S(=O)(=O)c1ccc(Oc2ccccn2)cc1

>  <pKi>
8.62

$$$$
